List of residual biofilm growth (% of control) values.
Test system: Staphylococcus aureus
testName: Antibiofilm activity against methicillin-resistant Staphylococcus aureus assessed as inhibition of biofilm formation by measuring residual biofilm growth incubated for overnight at 10-fold dilution by crystal violet staining based microtiter plate assay relative to control
Assay type: functional
Non-standard residues stand in square brackets, D forms with d. Residues, ends and D or L forms follow the SMILES beside them. Agp = N=C(N)NC[C@H](N)C(=O)O; Dab = NCC[C@H](N)C(=O)O; Dap = NC[C@H](N)C(=O)O
Your answer should be a plain number; it is taken to be in %.

Example compounds with recorded residual biofilm growth (% of control):
CC[C@H](C)[C@H](NC(=O)[C@H](CCN)NC(=O)[C@@H](NC(=O)[C@H](C)NC(=O)[C@@H](NC(=O)[C@@H](NC(=O)[C@H](CC(C)C)NC(=O)[C@H](CCCNC(=N)N)NC(=O)[C@@H](N)C(C)C)[C@@H](C)CC)C(C)C)C(C)C)C(=O)N[C@@H](Cc1c[nH]c2ccccc12)C(=O)N[C@@H](CCCNC(=N)N)C(=O)N[C@@H](CCCNC(=N)N)C(N)=O (H-VRLIVAV[Dab]IWRR-NH2); 103.9
CC[C@H](C)[C@H](NC(=O)[C@H](CCCNC(=N)N)NC(=O)[C@@H](NC(=O)[C@H](CN)NC(=O)[C@@H](NC(=O)[C@@H](NC(=O)[C@H](CC(C)C)NC(=O)[C@H](CCCNC(=N)N)NC(=O)[C@@H](N)C(C)C)[C@@H](C)CC)C(C)C)C(C)C)C(=O)N[C@@H](Cc1c[nH]c2ccccc12)C(=O)N[C@@H](CCCNC(=N)N)C(=O)N[C@@H](CCCNC(=N)N)C(N)=O (H-VRLIV[Dap]VRIWRR-NH2); 34.1

Consider the record given below.
-- ask Write down measured residual biofilm growth (% of control) (Staphylococcus aureus) for this compound. CC[C@H](C)[C@H](NC(=O)[C@H](CCCNC(=N)N)NC(=O)[C@@H](NC(=O)[C@H](CNC(=N)N)NC(=O)[C@@H](NC(=O)[C@@H](NC(=O)[C@H](CC(C)C)NC(=O)[C@H](CCCNC(=N)N)NC(=O)[C@@H](N)C(C)C)[C@@H](C)CC)C(C)C)C(C)C)C(=O)N[C@@H](Cc1c[nH]c2ccccc12)C(=O)N[C@@H](CCCNC(=N)N)C(=O)N[C@@H](CCCNC(=N)N)C(N)=O (H-VRLIV[Agp]VRIWRR-NH2)
-- reply 104.8

###

System: Staphylococcus aureus
testName: Antibiofilm activity against methicillin-resistant Staphylococcus aureus assessed as inhibition of biofilm formation by measuring residual biofilm growth incubated for overnight at 10-fold dilution by crystal violet staining based microtiter plate assay relative to control
Assay type: functional
Non-standard residues stand in square brackets, D forms with d. Residues, ends and D or L forms follow the SMILES beside them. hArg = N=C(N)NCCCC[C@H](N)C(=O)O; Agp = N=C(N)NC[C@H](N)C(=O)O; Dap = NC[C@H](N)C(=O)O
residual biofilm growth (% of control) strictly less than 30% = true (1). Otherwise false (0).

CC[C@H](C)[C@H](NC(=O)[C@H](CC(C)C)NC(=O)[C@H](CCCNC(=N)N)NC(=O)[C@@H](N)C(C)C)C(=O)N[C@@H](CCCCNC(=N)N)C(=O)N[C@@H](C)C(=O)N[C@H](C(=O)N[C@@H](CCCNC(=N)N)C(=O)N[C@H](C(=O)N[C@@H](Cc1c[nH]c2ccccc12)C(=O)N[C@@H](CCCNC(=N)N)C(=O)N[C@@H](CCCNC(=N)N)C(N)=O)[C@@H](C)CC)C(C)C (H-VRLI[hArg]AVRIWRR-NH2); false (0)
CC[C@H](C)[C@H](NC(=O)[C@H](CCCNC(=N)N)NC(=O)[C@@H](NC(=O)[C@H](C)NC(=O)[C@@H](NC(=O)[C@@H](NC(=O)[C@H](CC(C)C)NC(=O)[C@H](CNC(=N)N)NC(=O)[C@@H](N)C(C)C)[C@@H](C)CC)C(C)C)C(C)C)C(=O)N[C@@H](Cc1c[nH]c2ccccc12)C(=O)N[C@@H](CCCNC(=N)N)C(=O)N[C@@H](CCCNC(=N)N)C(N)=O (H-V[Agp]LIVAVRIWRR-NH2); true (1)
CC[C@H](C)[C@H](NC(=O)[C@H](CCCNC(=N)N)NC(=O)[C@@H](NC(=O)[C@H](C)NC(=O)[C@@H](NC(=O)[C@@H](NC(=O)[C@H](CC(C)C)NC(=O)[C@H](CCCNC(=N)N)NC(=O)[C@@H](N)C(C)C)[C@@H](C)CC)C(C)C)C(C)C)C(=O)N[C@@H](Cc1c[nH]c2ccccc12)C(=O)N[C@@H](CN)C(=O)N[C@@H](CCCNC(=N)N)C(N)=O (H-VRLIVAVRIW[Dap]R-NH2); true (1)
CC[C@H](C)[C@H](NC(=O)[C@H](CCCNC(=N)N)NC(=O)[C@@H](NC(=O)[C@H](C)NC(=O)[C@@H](NC(=O)[C@@H](NC(=O)[C@H](CC(C)C)NC(=O)[C@H](CCCNC(=N)N)NC(=O)[C@@H](N)C(C)C)[C@@H](C)CC)C(C)C)C(C)C)C(=O)N[C@@H](CN)C(=O)N[C@@H](CCCNC(=N)N)C(=O)N[C@@H](CCCNC(=N)N)C(N)=O (H-VRLIVAVRI[Dap]RR-NH2); true (1)

-- ask Lab note: confirm whether the reported residual biofilm growth (% of control) for this compound is below 30%, equality not counting. compound: CC[C@H](C)[C@H](NC(=O)[C@H](CCCNC(=N)N)NC(=O)[C@H](CNC(=N)N)NC(=O)[C@H](C)NC(=O)[C@@H](NC(=O)[C@@H](NC(=O)[C@H](CC(C)C)NC(=O)[C@H](CCCNC(=N)N)NC(=O)[C@@H](N)C(C)C)[C@@H](C)CC)C(C)C)C(=O)N[C@@H](Cc1c[nH]c2ccccc12)C(=O)N[C@@H](CCCNC(=N)N)C(=O)N[C@@H](CCCNC(=N)N)C(N)=O (H-VRLIVA[Agp]RIWRR-NH2)
-- reply false (0)
